Test Protocol: Henry solubility constant Hcp at 298.15 K (mol/(m3 Pa))
Experimental Conditions: reference: Mazza (1980)
Reported Property: Henry solubility constant Hcp

Recorded Henry solubility constant Hcp, per entry:
CCCSC [methyl propyl sulfide] | 0.0043
CCCS | 0.0009
CCCSSCCC [dipropyl disulfide] | 0.018
CCO | 6.2
C=CCSSCC=C | 0.0075

I: Cc1ccc(C)s1
II: CC(C)O
**Query** # returns the entry with the larger Henry solubility constant Hcp; inputs I and II Return value: the label identifying the chosen record.
**Result** II

I: C=CCSC [allyl methyl sulfide]
II: CCCO
**Query** // pick min by Henry solubility constant Hcp: I , II Return value: the label identifying the chosen record.
**Result** I
